Item-by-item account of pEC50
assay-system: S1P5 receptors (Homo sapiens)
Sequence (Q9H228 whole entry): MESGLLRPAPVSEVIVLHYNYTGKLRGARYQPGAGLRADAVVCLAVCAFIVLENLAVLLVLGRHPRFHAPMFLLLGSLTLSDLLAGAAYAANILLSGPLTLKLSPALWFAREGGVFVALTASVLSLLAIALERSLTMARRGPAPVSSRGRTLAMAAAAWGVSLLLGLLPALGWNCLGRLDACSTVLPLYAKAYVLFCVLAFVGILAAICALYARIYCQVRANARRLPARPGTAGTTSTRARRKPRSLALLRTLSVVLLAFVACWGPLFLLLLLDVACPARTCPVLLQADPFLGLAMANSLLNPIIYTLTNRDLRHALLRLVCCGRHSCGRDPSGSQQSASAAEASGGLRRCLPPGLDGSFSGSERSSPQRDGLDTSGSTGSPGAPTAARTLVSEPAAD
run-description: [35S]-GTPγS binding assay with CHO-S1P5 receptor membranes
run-conditions: membranes of CHO cells expressing recombinant S1P5 receptors; measure of S1P5 agonism
pEC50: −log10 of the molar value.

O=C(O)C1CN(C2CCc3cc(C4CN(c5cccc(F)c5)C4)ccc32)C1 (single isomer, unassigned) [Compound 8a] | 5.00 to 6.00
Cc1cc(C(C)(C)N2CCC(C(=O)O)CC2)cc(C)c1C1CN(c2c(Cl)cccc2Cl)C1 | ≥ 8.00

Identify measured pEC50 associated with `Cc1cc(C2CN(c3c(Cl)cccc3Cl)C2)cc(Cl)c1CN1CCC(C(=O)O)CC1`
≥ 8.00

Identify measured pEC50 associated with `Cc1cc(C2CN(c3c(C)cccc3C(F)F)C2)cc(C)c1CN1CCC(C(=O)O)CC1`
7.00 to 8.00
